Taken from ChEMBL document CHEMBL3425401.

Target: Sodium/nucleoside cotransporter 2 (Homo sapiens)
Experiment: Inhibition of human CNT2 expressed in COS7 cells assessed as reduction in sodium-dependent [14C]-inosine uptake at 100 uM in presence of Na+ by liquid scintillation counting method
Format: cell-based
Conditions: COS-7
Measured Parameter: inhibition (%)
Numbers only here, please. The scale is %.

A selection of reference data follows.
INSERT INTO assay_data (molecule, measured_parameter, unit_label, readout_number) VALUES
  ('O=C(CCc1ccc(O)cc1)c1c(O)cc(O)cc1O[C@@H]1O[C@H](CO)[C@@H](O)[C@H](O)[C@H]1O [PHLORIZIN]', 'inhibition', '%', 14),
  ('Nc1ncnc2c1nc(NCc1ccccc1)n2[C@@H]1O[C@H](CO)[C@@H](O)[C@H]1O', 'inhibition', '%', 58);

As a next step, examine the molecule that follows.
Query: Recorded inhibition of `Nc1ncnc2c1nc(NCCCc1ccccc1)n2[C@@H]1O[C@H](CO)[C@@H](O)[C@H]1O` , please.
Reply: 26

====

Molecular target: Sodium/nucleoside cotransporter 2 (Homo sapiens, UniProt O43868)
Sequence (O43868 whole entry): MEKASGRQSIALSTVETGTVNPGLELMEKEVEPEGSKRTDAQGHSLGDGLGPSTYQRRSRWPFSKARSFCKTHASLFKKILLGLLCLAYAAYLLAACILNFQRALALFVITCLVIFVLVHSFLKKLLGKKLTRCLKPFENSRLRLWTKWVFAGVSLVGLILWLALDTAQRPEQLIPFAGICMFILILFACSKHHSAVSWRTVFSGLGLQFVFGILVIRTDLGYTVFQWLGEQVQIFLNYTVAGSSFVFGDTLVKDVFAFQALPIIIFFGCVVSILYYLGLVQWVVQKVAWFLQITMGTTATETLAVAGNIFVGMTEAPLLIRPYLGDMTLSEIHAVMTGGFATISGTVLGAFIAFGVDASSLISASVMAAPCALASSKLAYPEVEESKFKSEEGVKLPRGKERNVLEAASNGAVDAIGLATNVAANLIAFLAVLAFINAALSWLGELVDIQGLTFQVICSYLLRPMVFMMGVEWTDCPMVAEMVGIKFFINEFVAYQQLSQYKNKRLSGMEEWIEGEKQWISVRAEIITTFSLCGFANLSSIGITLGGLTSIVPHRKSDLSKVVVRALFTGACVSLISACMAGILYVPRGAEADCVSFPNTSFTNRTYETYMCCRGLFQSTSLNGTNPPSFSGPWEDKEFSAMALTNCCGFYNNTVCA
Experiment: Inhibition of human CNT2 expressed in COS7 cells assessed as reduction in sodium-dependent [14C]-inosine uptake in presence of Na+ by liquid scintillation counting method
pIC50: −log10 of the molar value.
Measured Parameter: pIC50

Query: Observed pIC50 on Sodium/nucleoside cotransporter 2 (Homo sapiens, UniProt O43868) for `Nc1ncnc2c1nc(NCc1ccc(Cl)cc1)n2[C@@H]1O[C@H](CO)[C@@H](O)[C@H]1O` , please.
Reply: 4.96

Query: Observed pIC50 on Sodium/nucleoside cotransporter 2 (Homo sapiens, UniProt O43868) for `CCCCCC(=O)OC[C@H]1O[C@@H](n2cnc3c(N)ncnc32)[C@H](O)[C@@H]1O` , please.
Reply: < 4.00

Query: Observed pIC50 on Sodium/nucleoside cotransporter 2 (Homo sapiens, UniProt O43868) for `Nc1ncnc2c1ncn2[C@@H]1O[C@H](COC(=O)NCc2ccccc2)[C@@H](O)[C@H]1O` , please.
Reply: < 4.00

Query: Observed pIC50 on Sodium/nucleoside cotransporter 2 (Homo sapiens, UniProt O43868) for `O=c1[nH]c(=O)n([C@H]2C[C@H](O)[C@@H](CO)O2)cc1F` , please.
Reply: < 3.00

Query: Observed pIC50 on Sodium/nucleoside cotransporter 2 (Homo sapiens, UniProt O43868) for `CCCCCOC(=O)OC[C@H]1O[C@@H](n2cnc3c(N)ncnc32)[C@H](O)[C@@H]1O` , please.
Reply: < 4.00

Query: Observed pIC50 on Sodium/nucleoside cotransporter 2 (Homo sapiens, UniProt O43868) for `Cc1ccc(CNc2nc3c(N)ncnc3n2[C@@H]2O[C@H](CO)[C@@H](O)[C@H]2O)cc1` , please.
Reply: 4.96

Query: Observed pIC50 on Sodium/nucleoside cotransporter 2 (Homo sapiens, UniProt O43868) for `Nc1ncnc2c1ncn2[C@@H]1O[C@H](COC(=O)Cc2ccccc2)[C@@H](O)[C@H]1O` , please.
Reply: < 4.00

Query: Observed pIC50 on Sodium/nucleoside cotransporter 2 (Homo sapiens, UniProt O43868) for `CCOC(=O)OC[C@H]1O[C@@H](n2cnc3c(N)ncnc32)[C@H](O)[C@@H]1O` , please.
Reply: < 4.00

Query: Observed pIC50 on Sodium/nucleoside cotransporter 2 (Homo sapiens, UniProt O43868) for `Nc1ncnc2c1nc(NCc1ccc(-c3ccccc3)cc1)n2[C@@H]1O[C@H](CO)[C@@H](O)[C@H]1O` , please.
Reply: 6.19
